Entry source: PubChem BioAssay AID431

- assay name: viability loss of HPDE-C7K cells – cell-based, fluorescence, HTS, primary screen (AID 431);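 also: 0% = DMSO solvent wells and 100% = doxorubicin-treated wells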
- run parameters: HPDE-C7K KRASV12 cells, Alamar Blue viability, 48 h; at 10 µM
The whole screen tested about 63,000 compounds, of which about 1,100 (1.7%) were called active.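 The calls were made as follows: active = compounds whose percent cytotoxicity in the single-dose primary screen, scaled between solvent and toxic-drug controls, exceeds 50; inactive = the rest.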 Shown is part of a subset that was picked to be rich in actives. Entries with a potency or affinity are not part of this list.
Please state which outcome applies, choosing from active, inactive

Example results:
O=S(=O)(Nc1ccc2c(c1)OCCO2)c1cccc2cccnc12: inactive
COCCn1c(SCC(=O)Nc2ncc(C)s2)nc2sc3c(c2c1=O)CCC3: inactive
O=C(c1noc2c1CCCC2)N1CCN(C(c2ccccc2)c2ccccc2)CC1: inactive
O=C(CSc1nnnn1-c1ccccc1)CSc1nnnn1-c1ccccc1: inactive
COc1cccc(Oc2nnnn2-c2ccccc2)c1: inactive
CCN(CC)CCCN1C(=O)c2oc3ccccc3c(=O)c2C1c1cccc(OC)c1OC (configuration not stated): inactive

Called result for O=C(CSc1nnnn1C1CCCCC1)NCCc1ccccc1 inactive

Called result for Cn1nnnc1Sc1nc(-c2cccnc2)nc2ccccc12 active

Called result for COCCNC(=O)c1cc2cc(Br)cc(OC)c2oc1=O inactive

Called result for CCOC(=O)C1CCN(C(=O)c2oc3ccc(S(=O)(=O)N4CC(C)CC(C)C4)cc3c2C)CC1 (configuration not stated) inactive

Called result for O=C(O)CCC(=O)OCC1CCCO1 (configuration not stated) inactive

Called result for CC(C)(C)Nc1ncnc2c1cnn2-c1ccccc1 inactive

Called result for COc1ccc(-n2nnnc2-c2cccc(OC)c2)cc1 active

###

- assay name: viability loss of HPDE-C7K cells – cell-based, fluorescence, HTS, primary screen (AID 431);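 also: 0% = DMSO solvent wells and 100% = doxorubicin-treated wells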
- run parameters: HPDE-C7K KRASV12 cells, Alamar Blue viability, 48 h; at 10 µM
About 1,100 (1.7%) of roughly 63,000 compounds were called active.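 Rule for the calls: active = compounds whose percent cytotoxicity in the single-dose primary screen, scaled between solvent and toxic-drug controls, exceeds 50; inactive = the rest.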 Many of the other results were omitted from the sample, so actives are more common in it than they were. Measured potencies and affinities stand elsewhere.
Please state which outcome applies, choosing from true (1) (active), false (0) (inactive)

Example results:
CCCCCn1c(CN2CCCCC2CC)nc2c1c(=O)n(C)c(=O)n2C (centres undefined): false (0)
O=C1c2ccccc2-c2onc3ccc(NCCCn4ccnc4)c1c23: false (0)
COc1ccccc1NC(=O)C1=C(C)NC(SCC(=O)c2ccc(C)cc2)=C(C#N)C1c1ccco1 (centres undefined): false (0)
Cc1cccc(NC(=O)CSc2nnc(-c3ccccc3)n2N)c1C: false (0)
CSCSC1=C(C#N)C(c2ccc(Cl)cc2)C(C(C)=O)=C(C)N1 (centres undefined): false (0)
CC(=O)c1ccc(C(=O)Nc2ccc(N3CCOCC3)cc2)cc1: false (0)
CCCn1c(SCC(=O)NC(C)(C)C)nnc1C(C)C: false (0)
COc1cccc(C2=NOC(C(=O)NCc3ccc(F)cc3)C2)c1 (centres undefined): false (0)
O=C1c2oc3ccccc3c(=O)c2C(c2ccc(Br)cc2)N1c1ncccn1 (centres undefined): false (0)
Cc1ccc(Nc2nc(C)c(CCC(C)C)c(=O)[nH]2)cc1: false (0)

Called result for CC(=O)C1=C(C)OC(N)=C(C#N)C1c1ccco1 (centres undefined) false (0)

Called result for O=C1CC(N2CCN(c3nc4ccccc4s3)CC2)C(=O)N1Cc1cccs1 (centres undefined) false (0)

Called result for COc1ccc(-c2onc3ccc(Cl)cc23)cc1OC false (0)

Called result for Cc1cccc(NC(=O)CSc2nnc(-c3ccccc3)n2N)c1 false (0)

Called result for CCOc1ccc2noc3c2c1C(=O)c1ccccc1-3 false (0)

Called result for COc1ccc2c(c1)Cc1sc(NC(=O)c3cccs3)nc1-2 false (0)

Called result for COc1cc(C2=NOC(C(=O)NCc3ccco3)C2)cc(OC)c1OC (centres undefined) false (0)

Called result for CC(=O)c1cccc(NC(=O)CC2SC(N3CCCCC3)=NC2=O)c1 (centres undefined) false (0)

Called result for COc1cccc(N2C(=O)CC(N3CCC(C(N)=O)(N4CCCCC4)CC3)C2=O)c1 (centres undefined) false (0)

Called result for O=C(CN(Cc1ccccc1F)S(=O)(=O)c1ccc(Cl)cc1)NCCCO false (0)

Called result for OC(CN1CCOCC1)CN1CCOCC1 false (0)

Called result for CCN1C(=O)CC(C(=O)Nc2ccc(F)cc2)SC1=Nc1cccc(OC)c1 (centres undefined) false (0)

Called result for CCS(=O)(=O)N1CCN(c2cccc(C)c2C)CC1 false (0)

Called result for Cc1ccc(S(=O)(=O)CC(c2ccccc2)N2CCOCC2)cc1 (centres undefined) false (0)
